test protocol: self-splicing fitness, log relative to wild type (ln ratio); higher = more splicing; Tetrahymena group I intron in knt gene, E. coli kanamycin selection, DiMSum; sequences stand for … in CUCUCU…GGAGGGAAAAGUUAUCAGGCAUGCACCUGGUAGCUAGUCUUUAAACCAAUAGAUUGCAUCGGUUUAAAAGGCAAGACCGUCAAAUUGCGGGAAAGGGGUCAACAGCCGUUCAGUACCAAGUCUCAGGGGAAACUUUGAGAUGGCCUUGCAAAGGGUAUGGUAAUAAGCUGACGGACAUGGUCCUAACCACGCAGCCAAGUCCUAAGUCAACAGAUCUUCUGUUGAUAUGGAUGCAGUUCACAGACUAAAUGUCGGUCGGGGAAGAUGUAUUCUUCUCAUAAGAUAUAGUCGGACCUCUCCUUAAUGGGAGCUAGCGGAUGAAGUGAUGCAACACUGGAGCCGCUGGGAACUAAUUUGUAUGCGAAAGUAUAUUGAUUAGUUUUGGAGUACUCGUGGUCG;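 further: selection with 25 µg/mL kanamycin versus none on LB agar overnight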
particulars: 37 °C

[
  {
    "input sequence": "CGCCAGCAAUAUUACGGAGC",
    "self-splicing fitness (ln)": -2.82
  },
  {
    "input sequence": "UUACAGCAAUAUUACGAGUG",
    "self-splicing fitness (ln)": -0.895
  },
  {
    "input sequence": "AUGUAGCAAUAUUACGUGGA",
    "self-splicing fitness (ln)": -3.15
  },
  {
    "input sequence": "CACUAGCAAUAUUACGGUAC",
    "self-splicing fitness (ln)": -2.87
  },
  {
    "input sequence": "CCACAGCAAUAUUACGCCGG",
    "self-splicing fitness (ln)": -2.2
  },
  {
    "input sequence": "UUGUAGCAAUAUUACGGGCA",
    "self-splicing fitness (ln)": -0.65
  },
  {
    "input sequence": "CACCAGCAAUAUUACGGCGG",
    "self-splicing fitness (ln)": -0.567
  },
  {
    "input sequence": "GGACAGCAAUAUUACGGUAG",
    "self-splicing fitness (ln)": -1.32
  },
  {
    "input sequence": "CAAGAGCAAUAUUACGAUCA",
    "self-splicing fitness (ln)": -2.02
  },
  {
    "input sequence": "GGCGAGCAAUAUUACGAAUU",
    "self-splicing fitness (ln)": -0.459
  },
  {
    "input sequence": "GCCAAGCAAUAUUACGUUGU",
    "self-splicing fitness (ln)": -0.73
  },
  {
    "input sequence": "UAUAAGCAAUAUUACGGAAA",
    "self-splicing fitness (ln)": -1.48
  },
  {
    "input sequence": "GAAAAGCAAUAUUACGCGAC",
    "self-splicing fitness (ln)": 0.397
  },
  {
    "input sequence": "AAUAAGCAAUAUUACGCGAA",
    "self-splicing fitness (ln)": -1.01
  },
  {
    "input sequence": "GUACAGCAAUAUUACGGGCA",
    "self-splicing fitness (ln)": -0.873
  },
  {
    "input sequence": "AUGGAGCAAUAUUACGCAAU",
    "self-splicing fitness (ln)": -1.44
  },
  {
    "input sequence": "GUUCAGCAAUAUUACGGAAG",
    "self-splicing fitness (ln)": 0.566
  },
  {
    "input sequence": "CCGCAGCAAUAUUACGAGAG",
    "self-splicing fitness (ln)": -1.56
  },
  {
    "input sequence": "CGCAAGCAAUAUUACGCCAA",
    "self-splicing fitness (ln)": -3.03
  },
  {
    "input sequence": "GCCGAGCAAUAUUACGCUAA",
    "self-splicing fitness (ln)": -2.62
  },
  {
    "input sequence": "ACACAGCAAUAUUACGAAGG",
    "self-splicing fitness (ln)": -2.18
  },
  {
    "input sequence": "GACAAGCAAUAUUACGGCUU",
    "self-splicing fitness (ln)": -0.505
  },
  {
    "input sequence": "GGCAAGCAAUAUUACGUUCA",
    "self-splicing fitness (ln)": 0.553
  },
  {
    "input sequence": "GUAGAGCAAUAUUACGUGAG",
    "self-splicing fitness (ln)": -0.687
  },
  {
    "input sequence": "GGUCAGCAAUAUUACGUAAU",
    "self-splicing fitness (ln)": 0.68
  },
  {
    "input sequence": "UGGAAGCAAUAUUACGCCAG",
    "self-splicing fitness (ln)": 0.0553
  },
  {
    "input sequence": "UGGAAGCAAUAUUACGAUAA",
    "self-splicing fitness (ln)": -0.36
  },
  {
    "input sequence": "CUUCAGCAAUAUUACGGUAA",
    "self-splicing fitness (ln)": -1.88
  },
  {
    "input sequence": "UAUGAGCAAUAUUACGUUAC",
    "self-splicing fitness (ln)": -2.48
  },
  {
    "input sequence": "GCAAAGCAAUAUUACGUGUG",
    "self-splicing fitness (ln)": -0.419
  },
  {
    "input sequence": "GUAGAGCAAUAUUACGAAGU",
    "self-splicing fitness (ln)": -0.951
  },
  {
    "input sequence": "AGUCAGCAAUAUUACGCAUC",
    "self-splicing fitness (ln)": -0.329
  },
  {
    "input sequence": "ACAGAGCAAUAUUACGAUCC",
    "self-splicing fitness (ln)": -1.5
  },
  {
    "input sequence": "AUCCAGCAAUAUUACGGCUU",
    "self-splicing fitness (ln)": 0.438
  }
]
